Reported protein stability index values for a set of variants
B1: TRAF3IP2 (parent)
chain: KQGSMNFRFIPVLFPNAKKEHVPT

variants of: B1; assay: protein stability index of a GFP-peptide fusion (GPS, HEK-293T) (PSI 1-6); higher = more stable; conditions: c terminus: a fixed tail appended;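 further: lentivirally expressed fusions sorted by FACS into six bins by GFP to DsRed ratio, PSI derived from sequencing read proportions per bin multiplied by bin number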
measured_attribute: protein stability index

• T24D = 2.16
• L13G = 1.93
• P15G = 1.49
• I10D = 3.37
• V22T = 2.38
• P11W = 2.25
• T24G = 2.14
• P11K = 2.02
• P15C = 1.7
• Q2L = 2.23
• P15T = 2.54
• K1D = 2.02
• P23M = 1.78
• P23A = 1.82
• L13W = 2.09
• H21S = 2.07
• G3M = 1.75
• V22P = 1.82
• P11G = 2.35
• V12F = 2.14
• P23L = 2.16
• G3A = 1.9
• K1E = 2.7
• I10P = 3.42
• P15N = 1.87
• A17G = 2.18
• R8Y = 2.09
• K19S = 1.98
• N16I = 2.29
• F7E = 3.67
• P15Q = 1.41
• N6Q = 1.81
• S4A = 2.68
• R8S = 2.39
